System: human adult PBMCs
Experiment: TNF production by ELISA after stimulation of human adult PBMCs
Type: cell-based
Settings: median percentage TNF production as compared to R848; adult PBMCs, 33 μM, 18 hours, N=3-5
Measured TNF % (Median), listed per entry for reference.
Give the value in % but do not write % after it.

Worked examples, 8 molecules total:
Cc1ccc(-c2cn3cc(F)cnc3n2)cc1NC(=O)c1ccc(Cl)cc1C(F)(F)F [FRF-02-169] | 0.18
Cc1ccc(-c2cn3cccnc3n2)cc1NC(=O)C(CO)c1ccccc1 (stereo not drawn) [FRF-02-193] | 91.73
Cc1ccc(-c2cn3cccnc3n2)cc1NC(=O)Cc1ccccc1 [FRF-02-103] | 0.18
CCC(C(=O)Nc1cc(-c2cn3cc(C)cnc3n2)ccc1C)c1ccccc1 (stereo not drawn) [FRF-02-144-1] | 55.24
Cc1ccc(-c2cn3cc(F)cnc3n2)cc1NC(=O)c1ccccc1C [FRF-02-117] | 3.06
Cc1ccc(-c2cn3cc(F)cnc3n2)cc1NC(=O)C(C)(C)c1ccccc1 [FRF-03-084-1] | 6.00
COc1cnc2nc(-c3ccc(C)c(NC(=O)c4ccccc4C(F)(F)F)c3)cn2c1 [FRF-02-135] | 1.60
Cc1ccc(-c2cn3cccnc3n2)cc1NC(=O)c1ccccc1Br [Example 37.16] | 90.17

# value of TNF % (Median), human adult PBMCs, item Cc1ccc(-c2cn3cc(F)cnc3n2)cc1NC(=O)c1ccccc1Br [FRF-02-116] = 8.48
